Target: T1, Recombinant human B7-H3 extracellular domain protein (UniProtKB-Q5ZPR3, amino acids 1-461, C-His tag) (human, UniProt Q5ZPR3 29-461)
T1 construct: range 1-461; The printed range 1-461 starts at residue 1 and so covers the signal peptide; also called human B7-H3 ECD-His; recombinant human B7-H3 ECD protein; not shown: C-terminal His tag
T1 sequence (looked up): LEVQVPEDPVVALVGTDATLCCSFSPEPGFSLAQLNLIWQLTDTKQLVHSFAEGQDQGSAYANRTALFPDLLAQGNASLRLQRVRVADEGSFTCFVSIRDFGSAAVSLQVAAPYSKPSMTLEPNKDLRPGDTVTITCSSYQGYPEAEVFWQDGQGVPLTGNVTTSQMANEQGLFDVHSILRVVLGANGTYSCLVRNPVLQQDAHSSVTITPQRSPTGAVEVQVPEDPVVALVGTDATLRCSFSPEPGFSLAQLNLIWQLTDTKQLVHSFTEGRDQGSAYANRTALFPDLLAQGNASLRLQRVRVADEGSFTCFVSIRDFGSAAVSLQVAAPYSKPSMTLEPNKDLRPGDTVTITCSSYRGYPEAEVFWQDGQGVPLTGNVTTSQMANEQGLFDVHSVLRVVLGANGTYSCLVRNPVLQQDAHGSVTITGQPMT
Assay: BLI (ForteBio Octet QKe), antibody on AHC probes, 60 nM antigen, 1:1 Langmuir fit
MEASUREMENT NAME: kon (M⁻¹ s⁻¹)
Numeric answer only, unit M⁻¹ s⁻¹ assumed.

Query string: # query: kon of entry hz10B4 (antibody, V domains shown, Humanized anti-B7-H3 antibody prepared by the method of CN114573695A; also called parent hz10B4; hz10B4-VH×hz10B4-VL) VH: EVQLVQSGAEVKKPGASVKVSCKASGYTFTEYIMHWVRQAPGQGLEWMGGINPASGGTTYNQKFKGRVTMTRDTSISTAYMELSRLRSEDTAVYYCARKGKDYFDWYFDVWGQGTTVTVSS VL: DIQLTQSPSSLSASVGDRVTMTCSASSSVSYMHWYQQKPGKAPKLLIYDTSKLASGVPSRFSGSGSGTDFTLTISSLQPEDFATYYCQQWSSNPLTFGGGTKVEIK
Result string: 665000

Query string: # query: kon of entry hz10B4m5 (antibody, V domains shown, LCDR3 variant of hz10B4 (SSN→SGS); also called hz10B4-VH×hz10B4-Lm5-VL) VH: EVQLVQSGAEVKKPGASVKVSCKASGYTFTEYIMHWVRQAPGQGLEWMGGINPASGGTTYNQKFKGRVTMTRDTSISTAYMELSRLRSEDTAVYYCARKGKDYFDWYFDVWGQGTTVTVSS VL: DIQLTQSPSSLSASVGDRVTMTCSASSSVSYMHWYQQKPGKAPKLLIYDTSKLASGVPSRFSGSGSGTDFTLTISSLQPEDFATYYCQQWSGSPLTFGGGTKVEIK
Result string: 592000

Query string: # query: kon of entry hz10B4m4 (antibody, V domains shown, LCDR3 variant of hz10B4 (SSN→SSG); also called hz10B4-VH×hz10B4-Lm4-VL) VH: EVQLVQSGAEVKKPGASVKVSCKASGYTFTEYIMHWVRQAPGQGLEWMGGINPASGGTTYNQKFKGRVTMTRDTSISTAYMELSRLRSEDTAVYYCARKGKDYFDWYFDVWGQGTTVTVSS VL: DIQLTQSPSSLSASVGDRVTMTCSASSSVSYMHWYQQKPGKAPKLLIYDTSKLASGVPSRFSGSGSGTDFTLTISSLQPEDFATYYCQQWSSGPLTFGGGTKVEIK
Result string: 505000

Query string: # query: kon of entry hz10B4m1 (antibody, V domains shown, LCDR3 variant of hz10B4 (SSN→SSA); also called hz10B4-VH×hz10B4-Lm1-VL) VH: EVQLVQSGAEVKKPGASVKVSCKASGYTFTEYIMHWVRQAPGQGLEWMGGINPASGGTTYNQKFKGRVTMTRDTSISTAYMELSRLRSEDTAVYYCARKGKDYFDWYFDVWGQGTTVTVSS VL: DIQLTQSPSSLSASVGDRVTMTCSASSSVSYMHWYQQKPGKAPKLLIYDTSKLASGVPSRFSGSGSGTDFTLTISSLQPEDFATYYCQQWSSAPLTFGGGTKVEIK
Result string: 639000

Taken from patent EP4721767A1.
